Values from PubChem BioAssay (NCI)

- Tested on: OVCAR-3 ovarian
- measurement-notes: NCI tumour cell line growth inhibition, 48 h
I'd appreciate it if you could supply TGI values for the items below.

| molecule | experimental-value |
| --- | --- |
| CN(Cc1ccccc1)c1cc(=O)n(C)c(=O)[nH]1 | > 100 µM |
| COc1c(O)c2c3c(c(C)cc(O)c3c1O)C(=O)C(O)(C(C)(C)C(C)=O)C2=O (stereo not drawn) | > 100 µM |

Please examine the following record next.
input: Value wanted: TGI (OVCAR-3 ovarian) of entry `Cc1ccccc1C1=[N+]([O-])c2ccc(Cl)cc2C1=O`
output: 7.17 µM

====

Consider the following compounds; for each one, report its TGI.
- Test system: M14 melanoma
- measurement-notes: NCI tumour cell line growth inhibition, 48 h

Solved entries (count: 3):
| compound | tgt | TGI |
| --- | --- | --- |
| Cc1cc(-c2nc3ccccc3s2)ccc1NC(=O)[C@@H](N)CCCCN | M14 melanoma | 7.88 µM |
| COc1cc(/C=C2\[C@H]3c4c(c(OC)c(C)c(OC)c4OC)CC(C(=O)N2Cc2ccccc2)N3C)c(OC)c(C)c1OC | M14 melanoma | 36 µM |
| CC(C(=O)c1ccc(Cl)cc1)/C(=N/NC(=O)NN)C(=O)Nc1cccc(C(F)(F)F)c1 (centres undefined) | M14 melanoma | > 100 µM |

// next entry
input: Which measured TGI value corresponds to `CCCCn1cnc2c(c(CC#N)nn2-c2ccccc2)c1=N` ?
output: > 100 µM
